span ((Dv90−Dv10)/Dv50) values by entry
- assay.protocol: Particle size distribution of the powder produced by high pressure cavitation (HPC) and spray drying
- Assay type: physicochemical
- study.conditions: dry powder after HPC followed by spray drying
- Text: The suspension may be passed through a high pressure cavitation apparatus several times until the desired particle size and size distribution is achieved. […] The recirculation may, for example, be performed from 2-30 times (or cycles) depending upon the API. Preferred cycle ranges include from 5 to 25 and 15 to 25. […]
Please respond with just the number, no unit label.

{"compound": "CCC(=O)O[C@]1(C(=O)SCF)[C@H](C)C[C@H]2[C@@H]3C[C@H](F)C4=CC(=O)C=C[C@]4(C)[C@@]3(F)[C@@H](O)C[C@@]21C [Fluticasone propionate]", "span ((Dv90−Dv10)/Dv50)": 1.4}
{"compound": "C[C@@H]1C[C@H]2[C@@H]3CCC4=CC(=O)C=C[C@]4(C)[C@@]3(Cl)[C@@H](O)C[C@]2(C)[C@@]1(OC(=O)c1ccco1)C(=O)CCl [Mometasone furoate monohydrate]", "span ((Dv90−Dv10)/Dv50)": 1.4}
{"compound": "C[N+]1(C)[C@@H]2C[C@@H](OC(=O)C(O)(c3cccs3)c3cccs3)C[C@H]1[C@@H]1O[C@@H]12 [Tiotropium bromide]", "span ((Dv90−Dv10)/Dv50)": 1.7}
{"compound": "C[C@@H]1C[C@H]2[C@@H]3C[C@H](F)C4=CC(=O)C=C[C@]4(C)[C@@]3(F)[C@@H](O)C[C@]2(C)[C@@]1(OC(=O)c1ccco1)C(=O)SCF [Fluticasone furoate]", "span ((Dv90−Dv10)/Dv50)": 1.5}

// next entry
Task: Quick one: give measured span ((Dv90−Dv10)/Dv50) for OCc1cc(C(O)CNCCCCCCOCCCCc2ccccc2)ccc1O (centres unmarked) [Salmeterol xinafoate]
Output: 2.0

* * *

Dv10 values by entry
- assay.protocol: Particle size distribution of the powder produced by high pressure cavitation (HPC) and spray drying
- Type: physicochemical
- study.conditions: dry powder after HPC followed by spray drying
// return numeric value only (unit: μm, not printed)

Task: Quick one: give measured Dv10 for C[C@@H]1C[C@H]2[C@@H]3CCC4=CC(=O)C=C[C@]4(C)[C@@]3(Cl)[C@@H](O)C[C@]2(C)[C@@]1(OC(=O)c1ccco1)C(=O)CCl [Mometasone furoate monohydrate]
Output: 1.91

Task: Quick one: give measured Dv10 for CCC(=O)O[C@]1(C(=O)SCF)[C@H](C)C[C@H]2[C@@H]3C[C@H](F)C4=CC(=O)C=C[C@]4(C)[C@@]3(F)[C@@H](O)C[C@@]21C [Fluticasone propionate]
Output: 1.20

Task: Quick one: give measured Dv10 for C[C@@H]1C[C@H]2[C@@H]3C[C@H](F)C4=CC(=O)C=C[C@]4(C)[C@@]3(F)[C@@H](O)C[C@]2(C)[C@@]1(OC(=O)c1ccco1)C(=O)SCF [Fluticasone furoate]
Output: 0.89

Task: Quick one: give measured Dv10 for OCc1cc(C(O)CNCCCCCCOCCCCc2ccccc2)ccc1O (centres unmarked) [Salmeterol xinafoate]
Output: 0.33

Task: Quick one: give measured Dv10 for C[N+]1(C)[C@@H]2C[C@@H](OC(=O)C(O)(c3cccs3)c3cccs3)C[C@H]1[C@@H]1O[C@@H]12 [Tiotropium bromide]
Output: 0.74
